- experimental_system: T1, SNTG1, Q9NSN8
- T1 sequence (Q9NSN8 52-150, limits assumed, looked up): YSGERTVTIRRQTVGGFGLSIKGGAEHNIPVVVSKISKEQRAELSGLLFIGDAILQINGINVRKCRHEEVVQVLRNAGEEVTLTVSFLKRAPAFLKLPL
- assay_explanation: holdup assay
- Parameters: key: below the threshold = too weak to quantify, mostly under pKd 3.1 to 4
- test_conditions: plain residues with an end cap or a label only (N-terminal biotin on a linker: ado-ado)
value_type: pKd

PSVYSRSQYV [CLDN8, P56748] : below the threshold
NTALVESEDL [PALLS, Q8WX93;Q8WX93-1] : below the threshold
GSQSQVETEA [FKBP4, Q02790] : below the threshold
SAGADSETHC [SLCO1B1, Q9Y6L6] : 3.66
